Cited source for all entries: ChEMBL document CHEMBL1146896

- system: Sodium-dependent serotonin transporter (Rattus norvegicus)
- Sequence (P31652 whole entry): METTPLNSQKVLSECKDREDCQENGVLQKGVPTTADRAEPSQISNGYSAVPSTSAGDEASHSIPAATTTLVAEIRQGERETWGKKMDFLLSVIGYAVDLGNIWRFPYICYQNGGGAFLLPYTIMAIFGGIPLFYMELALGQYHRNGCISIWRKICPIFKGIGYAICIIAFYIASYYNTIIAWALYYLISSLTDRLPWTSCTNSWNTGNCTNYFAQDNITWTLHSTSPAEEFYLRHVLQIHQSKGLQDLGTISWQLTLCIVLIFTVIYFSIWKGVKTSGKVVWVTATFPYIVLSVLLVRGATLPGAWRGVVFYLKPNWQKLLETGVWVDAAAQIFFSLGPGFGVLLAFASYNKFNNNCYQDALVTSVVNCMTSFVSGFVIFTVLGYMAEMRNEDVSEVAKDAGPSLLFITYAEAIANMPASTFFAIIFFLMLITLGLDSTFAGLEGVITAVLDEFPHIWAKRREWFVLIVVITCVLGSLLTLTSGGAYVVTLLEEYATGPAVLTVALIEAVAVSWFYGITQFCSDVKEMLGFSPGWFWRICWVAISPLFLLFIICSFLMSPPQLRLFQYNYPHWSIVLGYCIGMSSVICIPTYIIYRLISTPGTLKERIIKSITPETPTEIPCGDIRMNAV
value.kind: Ki (nM)
Give your result in nM as a bare value.

1) COC(=O)[C@@H]1CN(C)CC[C@@H]1c1ccc(/C=C\I)cc1 | 7.9

## Input What does the record list as Ki for COC(=O)[C@@H]1CN(C)CC[C@@H]1c1ccc(-c2cccs2)cc1 ?
## Output 90.8

## Input What does the record list as Ki for COC(=O)[C@@H]1CN(C)CC[C@@H]1c1ccc(-c2ccsc2)cc1 ?
## Output 31.8

## Input What does the record list as Ki for COC(=O)[C@@H]1CN(C)CC[C@@H]1c1ccc(C=O)cc1 ?
## Output 1730

## Input What does the record list as Ki for COC(=O)[C@@H]1CN(C)CC[C@@H]1c1ccc(I)cc1 ?
## Output 167

## Input What does the record list as Ki for COC(=O)[C@@H]1CN(C)CC[C@@H]1c1ccc(-c2ccco2)cc1 ?
## Output 18.5
